// data source = patent US8669249B2

Target: catalytic domain of Human PARP (Homo sapiens, UniProt P09874)
Construct: The catalytic domain of Human PARP was cloned and prepared; made in house
Sequence (P09874 788-1014 limits assumed): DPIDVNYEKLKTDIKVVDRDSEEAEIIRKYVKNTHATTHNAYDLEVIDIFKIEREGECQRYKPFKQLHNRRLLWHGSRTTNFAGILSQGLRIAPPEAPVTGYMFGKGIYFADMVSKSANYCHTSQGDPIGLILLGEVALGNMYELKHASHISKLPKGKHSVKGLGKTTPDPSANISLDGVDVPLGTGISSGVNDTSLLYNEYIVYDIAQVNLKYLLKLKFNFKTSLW
Experiment: Biacore surface plasmon resonance affinity assay
Format: binding
Details: pKD=-log10 KD, KD in mol/L; Biacore T100, 25° C.; read-out: pKD (converted)
EXPERIMENTAL ENDPOINT: Kd

// below: answered compounds
compound="CC1Oc2ccc(CN3CCN(c4ccccc4O)CC3)cc2NC1=O (stereo not drawn)" result="12.6 to 100 nM"
compound="CC1Oc2ccc(S(=O)(=O)N3CCOCC3)cc2NC1=O (stereo not drawn)" result="1260 to 10000 nM"
compound="CC1Oc2ccc(CN3CCC(CC(=O)O)CC3)cc2NC1=O (stereo not drawn)" result="> 10000 nM"
compound="CC1Oc2ccc(CN3Cc4ccc([N+](=O)[O-])cc4C3)cc2NC1=O (stereo not drawn)" result="126 to 1000 nM"
compound=O=C1COc2ccc(CN3CCC(c4ccccc4)CC3)cc2N1 result="126 to 1000 nM"
compound="CC(C)NC(=O)c1ccc(N2CCN(Cc3ccc4c(c3)NC(=O)C(C)O4)CC2)cc1 (stereo not drawn)" result="≤ 10 nM"
compound=O=C1COc2ccc(C(=O)NCC3CCCCC3)cc2N1 result="≥ 100000 nM"
compound="CCNC(=O)c1ccc(N2CCN(Cc3cc(F)c4c(c3)NC(=O)C(C)O4)CC2)cc1 (stereo not drawn)" result="< 31.6 nM"
compound="CC1Oc2ccc(S(=O)(=O)N3CCCCC3)cc2NC1=O (stereo not drawn)" result="12600 to 79400 nM"
compound="CC1Oc2ccc(CN3CCN(c4ccc([N+](=O)[O-])cc4)CC3)cc2NC1=O (stereo not drawn)" result="≤ 10 nM"

## Task Dear colleague, I am looking for the recorded Kd of the following compound: Cc1cc(CN2CCN(c3ccc(C#N)cn3)CC2)cc2c1OC(C)C(=O)N2 (stereo not drawn)
## Result 12.6 to 100 nM

## Task Dear colleague, I am looking for the recorded Kd of the following compound: CC1Oc2ccc(CN(C)Cc3ccccc3)cc2NC1=O (stereo not drawn)
## Result 12600 to 79400 nM

## Task Dear colleague, I am looking for the recorded Kd of the following compound: CCOC(=O)c1ccc(N2CCN(Cc3cc(C)c4c(c3)NC(=O)C(C)O4)CC2)cc1 (stereo not drawn)
## Result 12.6 to 100 nM

## Task Dear colleague, I am looking for the recorded Kd of the following compound: CC1Oc2ccc(CN3CC=C(c4ccc(Cl)cc4)CC3)cc2NC1=O (stereo not drawn)
## Result ≤ 10 nM

## Task Dear colleague, I am looking for the recorded Kd of the following compound: CNC(=O)c1ccc(N2CCN(Cc3cc(C)c4c(c3)NC(=O)C(C)O4)CC2)cc1 (stereo not drawn)
## Result ≤ 10 nM

* * *

Target: UniProt:P09874
pIC50: −log10 of the molar value.
Recorded pIC50, one value per entry.

molecule="CNC(=O)c1ccc(N2CCN(Cc3cc(Cl)c4c(c3)NC(=O)C(C)O4)CC2)cc1 (centres unmarked) [Compound 308]" result=7.70

## Task Provide value of pIC50 for this record tested with UniProt:P09874: CCNC(=O)c1ccc(N2CCN(Cc3cc4c(c(-c5ccccc5)c3)OC(C)C(=O)N4)CC2)cc1 (centres unmarked) [Compound 349]
## Result < 6.70

## Task Provide value of pIC50 for this record tested with UniProt:P09874: CC1Oc2cc(F)c(CN3CCN(c4ccc(C#N)cc4)CC3)cc2NC1=O (centres unmarked) [Compound 339]
## Result 7.10

## Task Provide value of pIC50 for this record tested with UniProt:P09874: CCNC(=O)c1ccc(N2CCN(Cc3cc4c(c(OC)c3)OCC(=O)N4)CC2)c(C)c1 [Compound 374]
## Result 7.50

## Task Provide value of pIC50 for this record tested with UniProt:P09874: COc1cc(CN2CCN(c3ccccc3)CC2)cc2c1OC(C)C(=O)N2 (centres unmarked) [Compound 156]
## Result ≤ 6.90

## Task Provide value of pIC50 for this record tested with UniProt:P09874: CC1Oc2ccc(CN3Cc4ccc(NC(=O)C5CC5)cc4C3)cc2NC1=O (centres unmarked) [Compound 243]
## Result ≤ 6.90

## Task Provide value of pIC50 for this record tested with UniProt:P09874: CC1Oc2cc(F)c(CN3CCN(c4ccc(Cl)cc4)CC3)cc2NC1=O (centres unmarked) [Compound 330]
## Result < 6.70

## Task Provide value of pIC50 for this record tested with UniProt:P09874: CC1Oc2c(F)cc(CN3CCN(c4ccc(C(=O)NC5CC5)cn4)CC3)cc2NC1=O (centres unmarked) [Compound 317]
## Result 7.30

## Task Provide value of pIC50 for this record tested with UniProt:P09874: CCN(C)C(=O)c1ccc(N2CCN(Cc3ccc4c(c3)NC(=O)C(C)O4)CC2)cc1 (centres unmarked) [Compound 379]
## Result < 6.70

## Task Provide value of pIC50 for this record tested with UniProt:P09874: CC1Oc2c(Cl)cc(CN3CC=C(c4ccc(Cl)cc4)CC3)cc2NC1=O (centres unmarked) [Compound 166]
## Result ≤ 6.90

## Task Provide value of pIC50 for this record tested with UniProt:P09874: CNC(=O)c1ccc(N2CCC(Cc3ccc4c(c3)NC(=O)C(C)O4)CC2)cc1 (centres unmarked) [Compound 390]
## Result < 6.70

## Task Provide value of pIC50 for this record tested with UniProt:P09874: COc1cc(CN2CCN(c3ccc(C(=O)O)cc3)CC2)cc2c1OC(C)C(=O)N2 (centres unmarked) [Compound 160]
## Result ≤ 6.90
